# SYSTEM NAME: Alpha-bungarotoxin (Bungarus multicinctus)
# ASSAY PROCEDURE: alpha-bungarotoxin binders on microarray, profiling panel, artefact control for SMM control protein annotation, biochemical, small-molecule microarray, Alexa647 label, 635/667 nm fluorescence (AID 1117)
# CONDITION DETAILS: alpha-BTX-A647 binding fluorescence, higher = more signal
Record form. Attribute: composite z-score. Fill in for each entry.
Give bare numbers.

{"ITEM SMILES": "O=C1C[C@@](C(=O)NCC(F)(F)F)(c2ccc([N+](=O)[O-])cc2)[C@@H](c2ccc(CO)cc2I)N1C1CCCCC1", "SYSTEM NAME": "Alpha-bungarotoxin (Bungarus multicinctus)", "composite z-score": 0.0759}
{"ITEM SMILES": "COc1ccc(/C=C/C=O)cc1", "SYSTEM NAME": "Alpha-bungarotoxin (Bungarus multicinctus)", "composite z-score": -0.117}
{"ITEM SMILES": "COc1cc(COC(C)=O)ccc1OC(C)=O", "SYSTEM NAME": "Alpha-bungarotoxin (Bungarus multicinctus)", "composite z-score": -0.0551}
{"ITEM SMILES": "Cc1ccc([C@@H]2C[C@@H](Sc3ccccc3)[C@H](C(=O)O)CN2S(=O)(=O)c2ccc(C)cc2)cc1", "SYSTEM NAME": "Alpha-bungarotoxin (Bungarus multicinctus)", "composite z-score": 1.69}

Then there is this compound:
Ask | Recall the recorded composite z-score for "C=C(CCCC)C(=O)CC[C@@H](OC(=O)c1ccccc1-c1ccccc1C(=O)O)c1ccc(OCCO)cc1" with Alpha-bungarotoxin (Bungarus multicinctus) and state it.
Reply | 1.05

---

I'd appreciate it if you could supply composite z-score values for the items below.
# SYSTEM NAME: Follistatin-related protein 3 (Homo sapiens) (UniProt O95633)
# Sequence (O95633 whole entry, looked up): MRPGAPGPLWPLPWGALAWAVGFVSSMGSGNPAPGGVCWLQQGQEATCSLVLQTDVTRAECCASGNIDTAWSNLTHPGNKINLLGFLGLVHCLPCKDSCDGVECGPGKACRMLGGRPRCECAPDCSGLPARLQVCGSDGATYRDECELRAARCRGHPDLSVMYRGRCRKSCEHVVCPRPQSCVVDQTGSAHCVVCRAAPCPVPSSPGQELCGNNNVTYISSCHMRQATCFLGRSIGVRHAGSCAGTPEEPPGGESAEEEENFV
# ASSAY PROCEDURE: FSTL3 binders on small-molecule microarrays, primary screen, biochemical, small-molecule microarray, 635 nm fluorescence (AID 1105);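 note: score merges emission near 667 nm and signal to noise per printed spot across three slides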
# CONDITION DETAILS: FSTL3 binding, higher = more signal
Answers are plain numbers.

{"COMPOUND": "CC1CC/C=C\\[C@H]2OC34C=CCN(Cc5ccccc5)C(=O)[C@H]3N(CCCO)C(=O)[C@@H]4C2C(=O)O1 (some centres undefined)", "NUMERIC RESULT": -1.07}

# batch size: 3; output composite z-score per entry
1. C=CC1(C(=O)OC)CC=C(C(=O)OC)CC1 (centres undefined)
2. NC(=O)NCC#Cc1ccc2c(c1)[C@]1(C(=O)N2)[C@H](C(=O)Nc2nc3ccccc3s2)[C@H]2C(=O)O[C@H](c3ccccc3)[C@H](c3ccccc3)N2[C@@H]1c1ccccc1OCCO
3. CCc1cccc(NC(=O)O[C@H]2[C@H](OC(=O)Nc3ccccc3-c3ccccc3)[C@@H](OC(=O)Nc3ccccc3-c3ccccc3)[C@@H](OC)O[C@@H]2CO)c1

Reply |
0.791
1.02
1.38

---

Please provide measured z-score for the entries that follow.
# ASSAY PROCEDURE: E. coli acrAB mutant growth effects, primary screen, E. coli filamentation inducers, strain DRC39, OD650, 48 h (AID 1179);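 note: screen aims at cell division blockers that make cells filament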
# CONDITION DETAILS: E. coli DRC39 delta-acrAB growth, higher = more signal, called active from +8 up or from −8 down
Give bare numbers.

{"MOLECULE": "CC(C)=CCN[C@H](CO)c1ccccc1", "NUMERIC RESULT": -1.49}

State recorded z-score for all listed molecules.
1. CC(C)C(=C=CC[C@@H](O)c1ccc(OCCO)cc1)C[C@@H](O)COCc1ccccc1
2. COCCOC(=O)N1C(=O)[C@@]2(c3ccccc31)[C@H](c1ccc(O)cc1)N1[C@H](c3ccccc3)[C@H](c3ccccc3)OC(=O)[C@H]1[C@@H]2C(=O)Nc1nc2ccccc2s1
3. NC(=O)N1C(=O)C2C(C1=O)C1C=C(c3ccc(CO)cc3)C2C(c2cccs2)N1Cc1cccc(OC(F)(F)F)c1 (configuration not stated)
4. CC(C)OC(=O)C=C1C[C@@H](c2ccccn2)O[C@@H](c2ccccn2)O1
5. C=CCNC(=O)[C@@H]1[C@H]2C(=O)O[C@H](c3ccccc3)[C@H](c3ccccc3)N2[C@H](c2ccccc2OCCO)[C@@]12C(=O)N(C(=O)OCCOC)c1ccccc12
6. C[C@H]1NC(=O)[C@@]23C(=O)N[C@@H](Cc4ccccc4)C2[C@H](C)[C@@]2(C)O[C@H]2C3/C=C/C/C=C\CNC(=O)[C@@H]2CCCN2C1=O (some centres not stated)

Reply |
1. 1.29
2. 1.37
3. -4.66
4. 0.115
5. -0.476
6. 0.534
